These measurements were taken from ChEMBL document CHEMBL4177573.

assayed-system: UniProt P49146
Sequence (P49146 whole entry): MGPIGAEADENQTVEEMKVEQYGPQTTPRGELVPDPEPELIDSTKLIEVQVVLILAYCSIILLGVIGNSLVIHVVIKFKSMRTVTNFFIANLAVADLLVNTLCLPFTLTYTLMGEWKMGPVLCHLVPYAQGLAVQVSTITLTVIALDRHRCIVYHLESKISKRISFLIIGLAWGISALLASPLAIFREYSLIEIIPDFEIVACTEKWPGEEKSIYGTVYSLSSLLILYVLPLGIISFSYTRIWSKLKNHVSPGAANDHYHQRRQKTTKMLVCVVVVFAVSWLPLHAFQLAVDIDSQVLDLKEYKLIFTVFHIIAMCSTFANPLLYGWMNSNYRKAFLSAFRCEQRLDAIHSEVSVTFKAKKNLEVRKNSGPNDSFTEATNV
test-protocol: Agonist activity at human neuropeptide Y2 receptor expressed in CHO cell membranes assessed as stimulation of [35S]GTPgammaS binding incubated for 120 mins by liquid scintillation counting method
quantity-measured: pEC50
In plain terms, pEC50 is the concentration in mol/L turned into minus its base-10 logarithm.

Below, 2 molecules whose answers are already recorded.
smiles	pEC50
CC[C@](C)(NC(=O)[C@H]1CCCN1C(=O)[C@H](CO)NC(C)=O)C(=O)N[C@@H](Cc1cnc[nH]1)C(=O)N[C@@H](CC1CCCCC1)C(=O)N[C@@H](CC1CCCCC1)C(=O)N[C@@H](CC(N)=O)C(=O)N[C@@H](CC(C)C)C(=O)NC(C)(C)C(=O)N[C@H](C(=O)N[C@@H](CCCNC(=N)N)C(=O)N[C@@H](CCC(N)=O)C(=O)N[C@@H](CCCNC(=N)N)C(=O)N[C@@H](CC1CCCCC1)C(N)=O)[C@@H](C)O	8.70
CC[C@@](C)(NC(=O)[C@H](CC(C)C)NC(=O)[C@H](CC(N)=O)NC(=O)[C@H](CC1CCCCC1)NC(=O)[C@H](CC1CCCCC1)NC(=O)[C@H](Cc1cnc[nH]1)NC(=O)[C@H](CCCNC(=N)N)NC(=O)[C@H]1CCCN1C(=O)[C@H](CO)NC(C)=O)C(=O)N[C@H](C(=O)N[C@@H](CCCNC(=N)N)C(=O)N[C@@H](CCC(N)=O)C(=O)N[C@@H](CCCNC(=N)N)C(=O)N[C@@H](CC1CCCCC1)C(N)=O)[C@@H](C)O	9.77

Could you now consider this next molecule?
response.value for CC[C@@](C)(NC(=O)[C@H](CC1CCCCC1)NC(=O)[C@H](Cc1cnc[nH]1)NC(=O)[C@H](CCCNC(=N)N)NC(=O)[C@H]1CCCN1C(=O)[C@H](CO)NC(C)=O)C(=O)N[C@@H](CC(N)=O)C(=O)N[C@@H](CC(C)C)C(=O)NC(C)(C)C(=O)N[C@H](C(=O)N[C@@H](CCCNC(=N)N)C(=O)N[C@@H](CCC(N)=O)C(=O)N[C@@H](CCCNC(=N)N)C(=O)N[C@@H](CC1CCCCC1)C(N)=O)[C@@H](C)O (field: pEC50) = 9.30

====

test-protocol: MRT in C57BL/6J mouse at 1 mg/kg, sc measured during 5 mins to 24 hrs by LC/MS/MS method
Format: ADME, organism-based
protocol-conditions: in vivo
# MRT listing for each entry below

Below, 2 compounds whose answers are already recorded.
smiles	MRT
CC[C@](C)(NC(=O)[C@H](CC1CCCCC1)NC(=O)[C@H](Cc1ccncc1)NC(=O)[C@](C)(CC)NC(=O)[C@H]1C[C@H](O)CN1C(=O)[C@H](CO)NC(C)=O)C(=O)N[C@@H](CC(N)=O)C(=O)N[C@@H](CCCCN)C(=O)NC(C)(C)C(=O)N[C@H](C(=O)N[C@@H](CCCNC(=N)N)C(=O)N[C@@H](CCC(N)=O)C(=O)N[C@@H](CCCNC(=N)N)C(=O)N[C@@H](CC1CCCCC1)C(N)=O)[C@@H](C)O	31.2 min
CC[C@](C)(NC(=O)[C@H]1CCCN1C(=O)[C@H](CO)NC(C)=O)C(=O)N[C@@H](Cc1ccncc1)C(=O)N[C@@H](CC1CCCCC1)C(=O)NC(C)(C)C(=O)N[C@@H](CC(N)=O)C(=O)N[C@@H](CCCCN)C(=O)NC(C)(C)C(=O)N[C@H](C(=O)N[C@@H](CCCNC(=N)N)C(=O)N[C@@H](CCC(N)=O)C(=O)N[C@@H](CCCNC(=N)N)C(=O)N[C@@H](CC1CCCCC1)C(N)=O)[C@@H](C)O	22.2 min

response.value for CC[C@](C)(NC(=O)[C@H]1C[C@H](O)CN1C(=O)[C@H](CO)NC(=O)c1c[nH]cn1)C(=O)N[C@@H](Cc1ccncc1)C(=O)N[C@@H](CC1CCCCC1)C(=O)N[C@@H](CC(C)(C)C)C(=O)N[C@@H](CC(N)=O)C(=O)N[C@@H](CCCCN)C(=O)NC(C)(C)C(=O)N[C@H](C(=O)N[C@@H](CCCNC(=N)N)C(=O)N[C@@H](CCC(N)=O)C(=O)N[C@@H](CCCNC(=N)N)C(=O)N[C@@H](CC1CCCCC1)C(N)=O)[C@@H](C)O (field: MRT) = 33.6 min
